System: Leishmania infantum
Test Name: microbe, parasite or virus in culture
Assay type: functional, organism-based
Experimental Parameters: MHOM/MA/67/ITMAP-263, 48 h
pIC50: −log10 of the molar value.
For each record, write down the corresponding pIC50.

pIC50 recorded for this compound, COc1ccc([N+](=O)[O-])c2[nH]c(=O)ccc12 , is < 4.00

pIC50 recorded for this compound, O=c1cnc2cccc([N+](=O)[O-])c2[nH]1 , is 4.96

pIC50 recorded for this compound, Nc1ccc2cccnc2c1[N+](=O)[O-] , is < 4.00

pIC50 recorded for this compound, Cn1c(=O)ccc2ccccc21 , is < 4.00

pIC50 recorded for this compound, CC(=O)Nc1ccccc1[N+](=O)[O-] , is < 4.00

pIC50 recorded for this compound, Cc1ccc([N+](=O)[O-])c2[nH]c(=O)ccc12 , is 4.60

----------
Test system: Leishmania infantum
Test Name: microbe, parasite or virus in culture
Format: functional, organism-based
Experimental Parameters: MHOM/MA/67/ITMAP-263, 48 h
Test Readout: IC50 (µM)
Expressed in µM, but write only the number.

IC50 recorded for this molecule, O=c1[nH]c2c([N+](=O)[O-])cccc2cc1Br , is 7.1

IC50 recorded for this molecule, Cc1cc(=O)[nH]c2c([N+](=O)[O-])cccc12 , is 10.2

IC50 recorded for this molecule, O=c1cc(Br)c2cccc([N+](=O)[O-])c2[nH]1 , is 20.3

IC50 recorded for this molecule, O=c1cc(CO)c2cccc([N+](=O)[O-])c2[nH]1 , is 23.4

IC50 recorded for this molecule, C[C@@H]1[C@H](O)[C@@H](C)/C=C/C=C/C=C/C=C/C=C/C=C/C=C/[C@H](O[C@@H]2O[C@H](C)[C@@H](O)[C@H](N)[C@@H]2O)C[C@@H]2O[C@](O)(C[C@@H](O)C[C@@H](O)[C@H](O)CC[C@@H](O)C[C@@H](O)CC(=O)O[C@H]1C)C[C@H](O)[C@H]2C(=O)O , is 0.06

IC50 recorded for this molecule, O=c1[nH]c2c([N+](=O)[O-])cccc2cc1Cl , is 16

IC50 recorded for this molecule, Cc1cc([N+](=O)[O-])c2[nH]c(=O)ccc2c1 , is 23

IC50 recorded for this molecule, CSc1ccc(OCc2ncc([N+](=O)[O-])n2C)cc1 , is 3.4

IC50 recorded for this molecule, CCCCCCCCCCCCCCCCOP(=O)([O-])OCC[N+](C)(C)C , is 0.8

----------
For each record, write down the corresponding IC50.
System: Leishmania donovani
Test Name: Antileishmanial activity against amastigote stage of Leishmania donovani MHOM/IN/00/DEVI infected in human THP1 cells assessed as inhibition of parasite infection after 120 hrs by Giemsa staining-based microscopic method
Type: functional, organism-based
Experimental Parameters: THP-1, 120 h
Expressed in µM, but write only the number.

IC50 recorded for this molecule, O=c1[nH]c2c([N+](=O)[O-])cccc2cc1Br , is 18

IC50 recorded for this molecule, C[C@@H]1[C@H](O)[C@@H](C)/C=C/C=C/C=C/C=C/C=C/C=C/C=C/[C@H](O[C@@H]2O[C@H](C)[C@@H](O)[C@H](N)[C@@H]2O)C[C@@H]2O[C@](O)(C[C@@H](O)C[C@@H](O)[C@H](O)CC[C@@H](O)C[C@@H](O)CC(=O)O[C@H]1C)C[C@H](O)[C@H]2C(=O)O , is 0.4

IC50 recorded for this molecule, CCCCCCCCCCCCCCCCOP(=O)([O-])OCC[N+](C)(C)C , is 5.4

----------
For each record, write down the corresponding CC50.
Tested on: HepG2
Test Name: Cytotoxicity against human HepG2 cells assessed as decrease in cell viability after 72 hrs by MTT assay
Experimental Parameters: hepg2, 72 h

CC50 recorded for this compound, NCCC[C@](N)(C(=O)O)C(F)F [EFLORNITHINE, (S)-] , is > 100 µM

CC50 recorded for this compound, Cc1cc(=O)[nH]c2c([N+](=O)[O-])cccc12 , is 110 µM

CC50 recorded for this compound, O=c1cc(CO)c2cccc([N+](=O)[O-])c2[nH]1 , is > 100 µM

CC50 recorded for this compound, O=c1[nH]c2c([N+](=O)[O-])cccc2cc1Br , is 92 µM

CC50 recorded for this compound, Cc1cc([N+](=O)[O-])c2[nH]c(=O)ccc2c1 , is > 100 µM

CC50 recorded for this compound, CC(=O)Nc1ccc2cccnc2c1[N+](=O)[O-] , is > 100 µM

CC50 recorded for this compound, CSc1ccc(OCc2ncc([N+](=O)[O-])n2C)cc1 [FEXINIDAZOLE] , is > 200 µM

CC50 recorded for this compound, O=c1cc(Br)c2cccc([N+](=O)[O-])c2[nH]1 , is 60 µM

CC50 recorded for this compound, O=[N+]([O-])c1ccccc1 [NITROBENZENE] , is > 100 µM

CC50 recorded for this compound, NCCOCCOCCNCc1cc(=O)[nH]c2c([N+](=O)[O-])cccc12 , is > 100 µM

CC50 recorded for this compound, COc1ccc([N+](=O)[O-])c2[nH]c(=O)ccc12 , is > 100 µM

CC50 recorded for this compound, COc1nc2c([N+](=O)[O-])cccc2cc1Br , is > 6.2 µM

----------
Tested on: HepG2
Test Name: Cytotoxicity against human HepG2 cells assessed as decrease in cell viability after 72 hrs by MTT assay
Experimental Parameters: hepg2, 72 h
For each record, write down the corresponding CC50.

CC50 recorded for this compound, COc1cc([N+](=O)[O-])c2[nH]c(=O)ccc2c1 , is > 100 µM

CC50 recorded for this compound, O=c1[nH]c2c([N+](=O)[O-])cccc2cc1Cl , is 85 µM

CC50 recorded for this compound, Cn1c(=O)ccc2ccccc21 , is > 100 µM

CC50 recorded for this compound, O=[N+]([O-])c1cccc2cccnc12 , is > 100 µM

CC50 recorded for this compound, Cc1ccc2ccc(=O)[nH]c2c1[N+](=O)[O-] , is > 100 µM

CC50 recorded for this compound, Nc1cccc2cc(Br)c(=O)[nH]c12 , is > 100 µM

CC50 recorded for this compound, O=c1cnc2cccc([N+](=O)[O-])c2[nH]1 , is 125 µM

CC50 recorded for this compound, O=[N+]([O-])c1ccc2nc(O)ccc2c1 , is > 100 µM

CC50 recorded for this compound, CC(=O)Nc1ccccc1[N+](=O)[O-] , is > 100 µM

CC50 recorded for this compound, Nc1ccc2cccnc2c1[N+](=O)[O-] , is > 100 µM

CC50 recorded for this compound, Cc1ccc([N+](=O)[O-])c2[nH]c(=O)ccc12 , is > 100 µM

CC50 recorded for this compound, Oc1ccc2ccccc2n1 , is > 100 µM

----------
Tested on: THP-1
Test Name: Cytotoxicity against human THP1 cells assessed as decrease in cell viability after 72 hrs by MTT assay
Assay type: cell-based
Experimental Parameters: thp-1, 72 h
For each record, write down the corresponding CC50.
Expressed in µM, but write only the number.

CC50 recorded for this compound, C[C@@H]1[C@H](O)[C@@H](C)/C=C/C=C/C=C/C=C/C=C/C=C/C=C/[C@H](O[C@@H]2O[C@H](C)[C@@H](O)[C@H](N)[C@@H]2O)C[C@@H]2O[C@](O)(C[C@@H](O)C[C@@H](O)[C@H](O)CC[C@@H](O)C[C@@H](O)CC(=O)O[C@H]1C)C[C@H](O)[C@H]2C(=O)O , is 3.6

CC50 recorded for this compound, O=c1[nH]c2c([N+](=O)[O-])cccc2cc1Br , is 72

----------
System Name: serum albumin (Homo sapiens, UniProt P02768)
Sequence (P02768 whole entry): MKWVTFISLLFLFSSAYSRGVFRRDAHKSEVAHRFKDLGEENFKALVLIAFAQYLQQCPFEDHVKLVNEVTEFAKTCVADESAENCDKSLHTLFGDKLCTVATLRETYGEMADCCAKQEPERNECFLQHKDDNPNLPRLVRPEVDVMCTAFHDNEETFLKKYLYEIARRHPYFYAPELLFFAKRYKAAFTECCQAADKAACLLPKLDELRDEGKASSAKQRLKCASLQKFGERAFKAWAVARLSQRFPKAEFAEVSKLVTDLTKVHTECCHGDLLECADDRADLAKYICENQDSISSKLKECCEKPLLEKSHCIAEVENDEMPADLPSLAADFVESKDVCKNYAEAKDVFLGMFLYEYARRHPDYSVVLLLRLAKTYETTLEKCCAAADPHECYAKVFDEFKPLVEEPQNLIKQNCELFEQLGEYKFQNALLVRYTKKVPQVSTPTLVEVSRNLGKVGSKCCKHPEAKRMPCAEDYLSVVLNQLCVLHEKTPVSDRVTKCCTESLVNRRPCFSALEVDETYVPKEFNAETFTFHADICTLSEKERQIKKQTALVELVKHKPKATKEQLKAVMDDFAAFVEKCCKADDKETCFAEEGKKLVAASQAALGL
Test Name: Binding affinity to human serum albumin assessed as fraction unbound after 4 hrs by LC-MS method
Type: ADME
Experimental Parameters: human serum albumin
Test Readout: fraction unbound at 4 h
The answer should be written as a number, with no unit following it.

Value (fraction unbound at 4 h, serum albumin (Homo sapiens, UniProt P02768)) for record O=c1[nH]c2c([N+](=O)[O-])cccc2cc1Br = 0.078

Value (fraction unbound at 4 h, serum albumin (Homo sapiens, UniProt P02768)) for record NC(=O)N1c2ccccc2C=Cc2ccccc21 [CARBAMAZEPINE] = 0.276

----------
Test Name: Electrochemical behavior of the compound assessed as redox potential corrected toward normal hydrogen electrode at 10^-3 mol/L by cyclic voltammetry
Experimental Parameters: 1000 µM
For each record, write down the corresponding Activity.
Expressed in V, but write only the number.

Activity recorded for this compound, O=c1[nH]c2c([N+](=O)[O-])cccc2cc1Br , is -0.45

Activity recorded for this compound, Cc1cc([N+](=O)[O-])c2[nH]c(=O)ccc2c1 , is -0.56

Activity recorded for this compound, COc1ccc([N+](=O)[O-])c2[nH]c(=O)ccc12 , is -0.65

Activity recorded for this compound, O=c1[nH]c2c([N+](=O)[O-])cccc2cc1Cl , is -0.47

Activity recorded for this compound, COc1cc([N+](=O)[O-])c2[nH]c(=O)ccc2c1 , is -0.58

Activity recorded for this compound, CC(=O)Nc1ccccc1[N+](=O)[O-] , is -0.68

Activity recorded for this compound, Cc1cc(=O)[nH]c2c([N+](=O)[O-])cccc12 , is -0.53

Activity recorded for this compound, Cc1ccc2ccc(=O)[nH]c2c1[N+](=O)[O-] , is -0.71

Activity recorded for this compound, COc1nc2c([N+](=O)[O-])cccc2cc1Br , is -0.86

Activity recorded for this compound, O=c1cnc2cccc([N+](=O)[O-])c2[nH]1 , is -0.46

Activity recorded for this compound, O=[N+]([O-])c1ccc2nc(O)ccc2c1 , is -0.82

Activity recorded for this compound, Nc1ccc2cccnc2c1[N+](=O)[O-] , is -1.1

Activity recorded for this compound, COc1ccc2ccc(=O)[nH]c2c1[N+](=O)[O-] , is -0.75

Activity recorded for this compound, O=[N+]([O-])c1cccc2nc(O)ccc12 , is -0.67

Activity recorded for this compound, Cc1ccc([N+](=O)[O-])c2[nH]c(=O)ccc12 , is -0.58

Activity recorded for this compound, O=c1cc(Br)c2cccc([N+](=O)[O-])c2[nH]1 , is -0.51

Activity recorded for this compound, CC(=O)Nc1ccc2cccnc2c1[N+](=O)[O-] , is -0.86

Activity recorded for this compound, Oc1ccc2ccccc2n1 , is -1.86

Activity recorded for this compound, O=[N+]([O-])c1cccc2cccnc12 , is -0.84

Activity recorded for this compound, O=[N+]([O-])c1ccccc1 , is -0.85

Origin of measurements: ChEMBL document CHEMBL4152289
